test: Total clearance in morbidly obese human at 461 mg infused over 30 mins; format: ADME, organism-based; conditions: in vivo, iv

entry.smiles	clearance (mL/min)
CCCCCCCCCC(=O)N[C@@H](Cc1c[nH]c2ccccc12)C(=O)N[C@H](CC(N)=O)C(=O)N[C@@H](CC(=O)O)C(=O)N[C@@H]1C(=O)NCC(=O)N[C@@H](CCCN)C(=O)N[C@@H](CC(=O)O)C(=O)N[C@H](C)C(=O)N[C@@H](CC(=O)O)C(=O)NCC(=O)N[C@H](CO)C(=O)N[C@@H]([C@H](C)CC(=O)O)C(=O)N[C@@H](CC(=O)c2ccccc2N)C(=O)O[C@@H]1C	13.7

// provenance: ChEMBL document CHEMBL1155169
